Parameter TGI: see the listing below.
Tested on: EKVX NSCLC
assay overview: NCI tumour cell line growth inhibition, 48 h

Worked cases, answers included:
compound: COc1ccc(C2CC(c3ccccc3)=NN2C(=O)c2cc(OC)c(OC)c(OC)c2)cc1O (stereo not drawn)
result: > 100 µM

compound: C[C@]12CCCN1CC1=NNC(=O)c3cc(F)cc4[nH]c2c1c34
result: 49.7 µM

Turning to the following compound.
Check the records and state TGI for `O=c1ccc2c(Cl)cccc2o1` > 100 µM

====

Each record here notes measured TGI.
Test system: HCC-2998 colon
assay overview: NCI tumour cell line growth inhibition, 48 h

compound: O=[N+]([O-])c1cnc(N(CCO)CCO)s1
result: > 100 µM

compound: CN1C(c2ccccc2)CC(C)(O)CC1c1ccccc1 (stereo unspecified)
result: > 100 µM

compound: COc1ccc(N=C(CS(=O)c2ccc(C)cc2)C(F)(F)F)cc1 (stereo unspecified)
result: > 100 µM

Query TGI for COc1cc(N2CCN(C(C)C)CC2)ccc1Nc1nc(Nc2ccc(F)cc2C(=O)NCC(O)CO)c2cc[nH]c2n1 (stereo unspecified) > 25 µM

For the compound OCC1C2CCC3(OCCO3)C12 (stereo unspecified) , give its reported TGI. > 100 µM

Give TGI for the following compound: `Cc1cccc2c(N)c3cccc(C(=O)NCC[N+](C)(C)Cc4ccc(S(C)(=O)=O)cc4)c3nc12` > 100 µM
